Test system: HeLa cells
ASSAY: MTT cytotoxicity assay (mitochondrial integrity)
REPORTED PROPERTY: IC50

### Prompt Recall the recorded IC50 for O=c1[nH]cnc2c1ncn2[C@H]1CC[C@@H](CO)O1 with HeLa cells and state it.
### Response 89 µM

* * *

Tested on: HeLa cells
ASSAY: MTT cytotoxicity assay (mitochondrial integrity)
RUN PARAMETERS: read-out: toxicity IC50 (MTT cytotoxicity assay)
REPORTED PROPERTY: IC50 (µM)
API: value field is a number in µM; no unit string.

### Prompt Returns the measured IC50 for the input compound. Input: Cc1cn([C@H]2C[C@H](N=[N+]=[N-])[C@@H](CO)O2)c(=O)[nH]c1=O [AZT, reference compound]
### Response 161

* * *

System: HIV MDR 769 strain
ASSAY: AV-Finder-HIV assay, multi-drug resistant HIV MDR 769 strain replication in HeLa cells
Format: cell-based
RUN PARAMETERS: Human immunodeficiency virus 1, HeLa, read-out: IC50 of HIV MDR 769 viral replication inhibition
REPORTED PROPERTY: pIC50
# pIC50 is unitless: minus log10 of the molar concentration; print number only

### Prompt Recall the recorded pIC50 for Nc1ccc(C(=O)C23CCN(CC2)CC3)cc1 with HIV MDR 769 strain and state it.
### Response 11.00
